Entry source: ChEMBL document CHEMBL4196060

Assay: Half life in CD-1 mouse liver microsomes measured up to 4 hrs in presence of NADPH by UPLC-MS analysis
Format: ADME, microsome
measured quantity: t1/2
Note: a bare number is incomplete; add the unit.

For each of the items listed, what is its t1/2?
1. COc1ccc2ccn(Cc3cc(CN4CCCC4)c(O)c4ncccc34)c2c1
2. Oc1c(CN2CCCC2)cc(Cn2ccc3ccc(Cl)cc32)c2cccnc12
3. Oc1c(CN2CCCC2)cc(Cn2ccc3cc(F)ccc32)c2cccnc12
4. O=[N+]([O-])c1ccc2c(ccn2Cc2cc(CN3CCCC3)c(O)c3ncccc23)c1

Return:
0.88 h
1.2 h
1.36 h
1.17 h
